Measured Ki, listed per entry for reference.
# system-name: unphosphorylated VEGF-R2D50 (FLVK), cytosolic domain of human VEGF-R2 (Homo sapiens, UniProt P35968, DEL940-989/E990V)
# Construct: VEGF-R2D50 contains residues 806–939 and 990–1171
# Sequence (P35968 with tags, fused parts or gaps DEL940-989/E990V limits assumed): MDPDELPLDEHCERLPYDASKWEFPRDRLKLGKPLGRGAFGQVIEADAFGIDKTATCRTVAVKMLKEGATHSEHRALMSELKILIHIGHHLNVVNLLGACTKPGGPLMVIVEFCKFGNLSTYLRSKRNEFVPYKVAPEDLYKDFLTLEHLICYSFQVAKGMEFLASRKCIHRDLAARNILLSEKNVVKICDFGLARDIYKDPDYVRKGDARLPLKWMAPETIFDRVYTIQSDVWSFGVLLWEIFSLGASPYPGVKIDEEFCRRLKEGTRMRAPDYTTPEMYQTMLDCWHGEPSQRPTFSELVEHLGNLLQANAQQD
# experimental-details: VEGF-R2 coupled spectrophotometric assay (FLVK)
# Protocol: This construct determines the ability of a test compound to inhibit tyrosine kinase activity. […] The production of ADP from ATP that accompanies phosphoryl transfer was coupled to oxidation of NADH using phosphoenolpyruvate (PEP) and a system having pyruvate kinase (PK) and lactic dehydrogenase (LDH). The oxidation of NADH was monitored by following the decrease of absorbance at 340 nm (e340=6.22 cm^−1 mM^−1) using a Beckman DU 650 spectrophotometer. […]

Would you please look over these solved cases?
molecule | Ki
Cn1ccnc1-c1cc2nccc(Oc3ccc(CC(=O)Nc4cc5ccccc5cn4)cc3)c2s1 [Example 12] | < 1 nM
Cc1ccnc(NC(=O)Cc2ccc(Oc3ccnc4cc(C(=O)N5CCC5)sc34)cc2)c1 [Example 23] | < 1 nM
CNC(=O)Cc1ccc(Oc2ccnc3cc(C(=O)N4CC[C@@H](O)C4)sc23)cc1 [Example 69] | > 10 nM
CNC(=O)C(O)c1ccc(Oc2ccnc3cc(C(=O)N4CC[C@@H](OC)C4)sc23)cc1 (some centres unmarked) [Example 77] | > 10 nM

Now for a further molecule.
Please look up its Ki: Cn1ccnc1-c1cc2nccc(Oc3ccc(CC(=O)Nc4ccccn4)c(Cl)c3)c2s1 [Example 60]
1 to 10 nM

meta.source: patent US7208500B2
